# test_details: Lipid water partition coefficient (n-octanol / PBS pH 7.4)
# Type: physicochemical
# settings: read-out: lipid water partition coefficient log P
measured_property: logP
Give bare numbers.

Returns the measured logP for the input compound. Input: O=C1c2cc(N3CCN4CCC3CC4)ccc2-c2cccc([18F])c21 [[^18F] II-15]
1.64

----------
# system_under_test: UniProtKB Q12809
# test_details: in vitro
measured_property: inhibition at 5 min, 2 µM

Please review the following examples before continuing.
O=C1c2cc(N3CCN4CCC3CC4)ccc2-c2cccc(F)c21	82%
Nc1cccc2c1C(=O)c1cc(N3CCN4CCC3CC4)ccc1-2	20%
O=C1c2cc(F)ccc2-c2ccc(N3CCN4CCC3CC4)cc21	80%

What is its inhibition at 5 min, 2 µM for UniProtKB Q12809? Entry: Nc1ccc2c(c1)C(=O)c1cc(N3CCN4CCC3CC4)ccc1-2
42%

----------
# system_under_test: hERG potassium channel (Homo sapiens)
# test_details: in vitro
Can you tell me inhibition at 5 min, 10 µM for the items I'm about to list?
Numbers only, in %.

O=C1c2cc(N3CCN4CCC3CC4)ccc2-c2cccc(F)c21	97
O=C1c2cc(F)ccc2-c2ccc(N3CCN4CCC3CC4)cc21	96
Nc1cccc2c1C(=O)c1cc(N3CCN4CCC3CC4)ccc1-2	25

Here's the next entry for you.
Entry Nc1ccc2c(c1)C(=O)c1cc(N3CCN4CCC3CC4)ccc1-2 has what inhibition at 5 min, 10 µM?
79

----------
# system_under_test: hERG potassium channel (Homo sapiens, UniProt Q12809)
# Sequence (Q12809 whole entry): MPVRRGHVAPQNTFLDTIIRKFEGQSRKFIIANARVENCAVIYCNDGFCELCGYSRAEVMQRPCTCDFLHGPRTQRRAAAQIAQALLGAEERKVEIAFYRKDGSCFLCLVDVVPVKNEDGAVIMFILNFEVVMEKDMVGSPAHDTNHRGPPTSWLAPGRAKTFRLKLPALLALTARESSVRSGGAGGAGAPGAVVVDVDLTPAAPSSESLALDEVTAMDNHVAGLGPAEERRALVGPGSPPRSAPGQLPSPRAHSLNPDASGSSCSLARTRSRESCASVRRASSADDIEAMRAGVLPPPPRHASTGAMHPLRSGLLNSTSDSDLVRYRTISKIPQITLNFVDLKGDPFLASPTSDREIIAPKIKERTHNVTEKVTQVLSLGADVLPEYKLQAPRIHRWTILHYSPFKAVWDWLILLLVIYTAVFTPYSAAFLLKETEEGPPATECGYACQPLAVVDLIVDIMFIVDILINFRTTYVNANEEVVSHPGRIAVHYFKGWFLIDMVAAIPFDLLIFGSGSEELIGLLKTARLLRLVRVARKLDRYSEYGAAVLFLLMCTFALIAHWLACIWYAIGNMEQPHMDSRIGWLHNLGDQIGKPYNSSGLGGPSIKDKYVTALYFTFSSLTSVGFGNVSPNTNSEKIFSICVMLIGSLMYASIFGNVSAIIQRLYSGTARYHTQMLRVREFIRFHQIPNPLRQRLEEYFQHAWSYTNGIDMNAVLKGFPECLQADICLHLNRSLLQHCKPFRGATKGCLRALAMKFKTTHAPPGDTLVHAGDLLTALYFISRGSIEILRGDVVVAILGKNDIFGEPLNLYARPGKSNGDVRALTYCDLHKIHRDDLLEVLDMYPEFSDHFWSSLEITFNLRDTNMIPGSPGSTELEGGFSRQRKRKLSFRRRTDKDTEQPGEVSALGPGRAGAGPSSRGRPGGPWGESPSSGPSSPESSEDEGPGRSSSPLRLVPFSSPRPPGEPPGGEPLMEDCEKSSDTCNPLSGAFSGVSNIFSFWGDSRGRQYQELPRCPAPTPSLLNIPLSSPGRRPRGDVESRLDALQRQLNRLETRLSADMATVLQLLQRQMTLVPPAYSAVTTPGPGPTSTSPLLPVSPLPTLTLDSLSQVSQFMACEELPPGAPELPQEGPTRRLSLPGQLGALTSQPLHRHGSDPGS
# test_details: in vitro
measured_property: inhibition at 5 min, 0.1 µM (%)
Answers are plain numbers, in %.

Any idea what its inhibition at 5 min, 0.1 µM is? The compound is COc1cc(N)c(Cl)cc1C(=O)NC1CCN(CCCOc2ccc(F)cc2)CC1OC (stereo not shown) [Cisapride, reference compound]
84

----------
# test_details: Measurement of half lethal dosage LD50 (tail vein injection)
# Type: in vivo, Kunming mice
# settings: both sexes, Kunming, mouse, in vivo, intravenous, mice, tail vein injection, weighted probit method; read-out: half lethal dosage LD50
measured_property: LD50 at 14 days (mg/kg)
One number for each entry, in mg/kg.

# input molecule: O=C1c2cc(N3CCN4CCC3CC4)ccc2-c2cccc(F)c21 [II-15] ; wanted: its LD50 at 14 days
53.7

----------
# system_under_test: hERG potassium channel (Homo sapiens)
# test_details: in vitro
Exercise: for every item that follows, state its recorded inhibition at 5 min, 0.4 µM.
One number for each entry, in %.

Would you please look over these solved cases?
O=C1c2cc(F)ccc2-c2ccc(N3CCN4CCC3CC4)cc21	42
O=C1c2cc(N3CCN4CCC3CC4)ccc2-c2cccc(F)c21	45
Nc1cccc2c1C(=O)c1cc(N3CCN4CCC3CC4)ccc1-2	6

We next turn to a different compound, shown below.
Sample Nc1ccc2c(c1)C(=O)c1cc(N3CCN4CCC3CC4)ccc1-2 — what was its inhibition at 5 min, 0.4 µM?
19

----------
# system_under_test: hERG potassium channel (Homo sapiens, UniProt Q12809)
# test_details: in vitro
measured_property: inhibition at 5 min, 50 µM (%)
Answers are plain numbers, in %.

List inhibition at 5 min, 50 µM for every entry below, keeping the order given.
1. Nc1ccc2c(c1)C(=O)c1cc(N3CCN4CCC3CC4)ccc1-2
2. O=C1c2cc(F)ccc2-c2ccc(N3CCN4CCC3CC4)cc21
3. Nc1cccc2c1C(=O)c1cc(N3CCN4CCC3CC4)ccc1-2
4. O=C1c2cc(N3CCN4CCC3CC4)ccc2-c2cccc(F)c21

1: 98; 2: 100; 3: 53; 4: 98

----------
# system_under_test: α7 nAChRs (Rattus norvegicus, UniProt Q05941)
# Sequence (Q05941 23-502): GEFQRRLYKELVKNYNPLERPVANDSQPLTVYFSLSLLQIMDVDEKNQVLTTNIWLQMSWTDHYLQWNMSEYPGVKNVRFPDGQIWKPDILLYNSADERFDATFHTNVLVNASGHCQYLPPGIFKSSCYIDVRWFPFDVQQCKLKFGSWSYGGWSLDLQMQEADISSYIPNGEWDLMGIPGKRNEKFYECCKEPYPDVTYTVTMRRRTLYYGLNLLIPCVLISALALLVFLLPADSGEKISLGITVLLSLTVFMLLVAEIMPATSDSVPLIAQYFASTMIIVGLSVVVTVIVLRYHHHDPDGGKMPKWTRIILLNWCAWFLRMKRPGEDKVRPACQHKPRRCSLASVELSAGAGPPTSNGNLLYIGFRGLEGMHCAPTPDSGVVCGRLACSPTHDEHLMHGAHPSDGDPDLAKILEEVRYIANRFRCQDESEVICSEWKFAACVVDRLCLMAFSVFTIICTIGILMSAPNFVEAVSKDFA
# test_details: In vitro competitive binding experiment with [125I] α-bgt as radioactive standard
# Parameters: species or system SD rats
# settings: 0.4 nM [125I] α-bgt, Cheng-Prusoff, mean of three measurements ± SD; read-out: Ki (nM), in vitro binding affinity to α7 nAChRs
Please respond with reported Ki for every item in the list.
One number for each entry, in nM.

CN1CC2CN(c3ccc(-c4ccc(OCCF)cc4)nn3)CC2C1 (stereo not drawn) [III-24]	445
Fc1ccc(-c2ccc3oc(N4CCN5CCC4CC5)nc3n2)cn1 [Compound I-10]	378

--- query ---
Given CN1CC2CN(c3ccc(-c4ccc5c(ccn5CCF)c4)nc3)CC2C1 (stereo not drawn) [III-19] , state its recorded Ki.
456

----------
I'd be grateful if you could share measured IC50 for these entries.
# system_under_test: hERG potassium channel (Homo sapiens)
# test_details: In vitro hERG potassium channel inhibition experiment (conventional patch clamp, HEK293 cell line stably expressing hERG)
# settings: IC50 (μM), hERG potassium current, Table 7 and text, n=3
Answers are plain numbers, in µM.

O=C1c2cc(N3CCN4CCC3CC4)ccc2-c2cccc(F)c21 [II-15]	0.46
Nc1cccc2c1C(=O)c1cc(N3CCN4CCC3CC4)ccc1-2 [II-14]	49.7
Nc1ccc2c(c1)C(=O)c1cc(N3CCN4CCC3CC4)ccc1-2 [II-5]	2.5

Now consider a different compound.
Look at this compound and give its reported IC50. O=C1c2cc(F)ccc2-c2ccc(N3CCN4CCC3CC4)cc21 [II-6]
0.46

The origin of these recorded values is patent US20200147243A1.
